Field: intrinsic clearance, rat liver microsomes. Provide a value for each of the molecules that follow.
Lab book: enter the figure in mL/min/kg, no units written.

Lookup: Need intrinsic clearance, rat liver microsomes, item Cn1cnnc1CCn1ccnc1-c1cc2ccccc2s1
Found: 25.3

Lookup: Also need NC(=O)COc1ccccc1-c1ccccc1 , thanks.
Found: 75.6

Lookup: Also need COc1ccc(-c2nn(C)c3ccccc23)c(OC)c1OC , thanks.
Found: 1270

Lookup: Also need O[C@@H]1CO[C@H]2C[C@@H]1Nc1c(Cc3ccccc3)cccc12 , thanks.
Found: 354

Lookup: Also need CSc1ccc(-c2ccc3n(c2=O)C[C@H]2C[C@@H]3CN(C(=O)c3ccncc3)C2)cc1 , thanks.
Found: 357

Lookup: Also need Cc1cc(C)nc(N2Cc3ccccc3C2=N)n1 , thanks.
Found: 1160
